TARGET DESC: KiSS-1 receptor (Homo sapiens) (UniProt Q969F8)
Sequence (Q969F8 whole entry, looked up): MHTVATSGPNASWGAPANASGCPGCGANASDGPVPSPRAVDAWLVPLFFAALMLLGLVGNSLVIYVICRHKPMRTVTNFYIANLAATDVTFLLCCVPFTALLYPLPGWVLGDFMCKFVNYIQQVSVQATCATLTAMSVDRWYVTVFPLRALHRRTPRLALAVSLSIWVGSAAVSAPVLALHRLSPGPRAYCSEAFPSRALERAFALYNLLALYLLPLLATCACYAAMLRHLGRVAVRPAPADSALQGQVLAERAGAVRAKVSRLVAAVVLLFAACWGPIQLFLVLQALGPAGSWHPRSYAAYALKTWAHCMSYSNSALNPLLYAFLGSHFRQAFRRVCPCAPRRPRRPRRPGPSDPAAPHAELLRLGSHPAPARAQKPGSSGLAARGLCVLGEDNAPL
TEST DESCRIPTION: Human kisspeptin (KISS1R) small molecule agonists, calcium flux assay in KISS1R-HEK293 cells (AID 1920064)
ASSAY CONTEXT: KISS1R-HEK293, calcium flux fluorescence, agonist; series mostly up to 76.8 µM
Calls of active or inactive are those of the source. Calls follow the shape of the dose curve; as a rule, active = well fitted activation curve with a large enough effect in the repeat runs; inconclusive = weak or mixed curves; inactive = flat fitted curve, though single readings scatter.
READOUT NAME: outcome

Below, each entry is followed by its recorded outcome result.
CC1(C)O[C@@H]2C[C@H]3[C@@H]4CCC5=CC(=O)C=C[C@]5(C)[C@@]4(F)[C@@H](O)C[C@]3(C)[C@]2(C(=O)CO)O1 ... inactive
O=C(Oc1ccccc1)c1ccccc1O ... inactive
CC1(C)[C@@H]2CC[C@@]1(C)C(=O)C2 ... inactive
O=S(=O)(O)c1ccc2ccccc2c1 ... inactive
Cc1ncc[nH]1 ... inactive

# outcome (compound: CC(C)=CCC/C(C)=C\CO ) is inactive

// sample OC1CCCCC1 , its outcome was inactive

compound CCCOC(=O)NCCCN(C)C , outcome observed: inactive

So, CC(=O)Nc1ccc(CC(=O)O)cc1 ? Its outcome was inactive

For COc1ccc(Cl)cc1C(=O)NCCc1ccc(S(=O)(=O)NC(=O)NC2CCCCC2)cc1 the compound record lists outcome as inactive

Lab note: measured outcome of CC(=O)c1ccccc1 was inactive

Item: Cc1ccc(S(=O)(=O)N=C=O)cc1 | outcome: inactive

// sample O=S(=O)(O)c1ccc2nc(-c3ccccc3)[nH]c2c1 , its outcome was inactive
